Reference for the values: ChEMBL document CHEMBL3785040

tested on: Mycobacterium tuberculosis; assay: Antituberculosis activity against Mycobacterium tuberculosis H37Rv in 7H12 medium incubated for 4 days by Microplate Alamar Blue assay; assay type: functional; settings: 96 h
attributeMeasured: MIC

Quick one: MIC for CSN1C(=O)[C@@H](NC(=O)Cc2ccccc2)[C@@H]1OC(C)=O ?
47.6 µM

Could you do the same for CSN1C(=O)[C@@H](NC(=O)COc2ccccc2)[C@@H]1N(OCc1ccccc1)C(=O)c1cc([N+](=O)[O-])cc(C(F)(F)F)c1 (racemic) , please?
> 100 µM

Could you do the same for O=C1CC(N(OCc2ccccc2)C(=O)c2cc([N+](=O)[O-])cc(C(F)(F)F)c2)N1 (racemic) , please?
44.7 µM

Could you do the same for O=C(COc1ccccc1)N[C@@H]1C(=O)N[C@H]1N(OCc1ccccc1)C(=O)c1ccccc1 , please?
5.93 µM
